# key: entry, value: inhibitory concentration
testedSystem: DNA polymerase alpha catalytic subunit (Mus musculus) (UniProt P33609)
Sequence (whole entry): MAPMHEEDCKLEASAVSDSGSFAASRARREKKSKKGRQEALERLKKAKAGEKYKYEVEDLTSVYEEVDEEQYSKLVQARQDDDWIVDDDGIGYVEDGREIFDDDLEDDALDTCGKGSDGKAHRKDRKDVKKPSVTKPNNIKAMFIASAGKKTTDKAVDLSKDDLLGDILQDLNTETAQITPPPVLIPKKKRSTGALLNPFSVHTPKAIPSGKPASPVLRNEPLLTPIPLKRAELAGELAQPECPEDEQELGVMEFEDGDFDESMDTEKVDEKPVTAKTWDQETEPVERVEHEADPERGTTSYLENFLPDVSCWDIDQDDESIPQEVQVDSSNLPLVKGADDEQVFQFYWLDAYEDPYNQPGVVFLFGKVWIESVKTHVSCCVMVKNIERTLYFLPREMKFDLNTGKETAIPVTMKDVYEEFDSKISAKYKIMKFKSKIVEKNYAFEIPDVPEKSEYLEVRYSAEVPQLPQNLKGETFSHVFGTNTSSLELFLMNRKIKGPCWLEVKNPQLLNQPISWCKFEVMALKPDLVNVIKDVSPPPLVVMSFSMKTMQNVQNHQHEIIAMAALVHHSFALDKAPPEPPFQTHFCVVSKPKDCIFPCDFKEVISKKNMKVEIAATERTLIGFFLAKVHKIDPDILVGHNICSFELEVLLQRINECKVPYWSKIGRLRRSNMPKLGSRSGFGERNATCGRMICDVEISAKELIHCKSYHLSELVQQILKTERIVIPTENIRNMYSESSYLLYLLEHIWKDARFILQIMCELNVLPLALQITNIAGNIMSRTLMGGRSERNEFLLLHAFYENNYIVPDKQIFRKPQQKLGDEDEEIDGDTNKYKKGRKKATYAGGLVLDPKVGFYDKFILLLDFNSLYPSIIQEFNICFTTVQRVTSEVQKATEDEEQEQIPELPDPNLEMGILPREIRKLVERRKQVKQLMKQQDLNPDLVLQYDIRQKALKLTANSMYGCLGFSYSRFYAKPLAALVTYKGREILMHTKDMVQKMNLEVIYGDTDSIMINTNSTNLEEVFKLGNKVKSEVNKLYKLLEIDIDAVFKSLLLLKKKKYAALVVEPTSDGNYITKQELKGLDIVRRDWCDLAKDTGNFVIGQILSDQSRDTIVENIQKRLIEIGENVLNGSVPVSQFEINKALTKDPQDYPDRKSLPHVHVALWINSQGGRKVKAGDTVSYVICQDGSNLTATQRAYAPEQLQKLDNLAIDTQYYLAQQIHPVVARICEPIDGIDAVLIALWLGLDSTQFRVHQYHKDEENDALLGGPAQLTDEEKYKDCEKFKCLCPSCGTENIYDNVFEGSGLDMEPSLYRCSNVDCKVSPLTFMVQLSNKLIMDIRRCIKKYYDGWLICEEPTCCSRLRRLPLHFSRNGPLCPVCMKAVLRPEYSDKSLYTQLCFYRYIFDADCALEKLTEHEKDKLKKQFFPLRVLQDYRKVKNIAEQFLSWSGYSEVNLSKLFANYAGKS
experimentalDetails: Inhibition of DNA polymerase alpha isolated from mouse L1210 cells assessed as reduction in DNA synthesis by cell-free system based assay

substanceSmiles	displayUnit	inhibitory concentration
C/C(=N\NC(=N)N)c1ccc(NC(=O)Nc2ccc(/C(C)=N/NC(=N)N)cn2)nc1	µM	160
Br.Br.C/C(=N/NC(=N)N)c1ccc(NC(=O)NCc2ccc(/C(C)=N/NC(=N)N)cc2)cc1	µM	110
C/C(=N\NC(=N)N)c1ccc(NC(=O)Nc2ccc(/C(C)=N/NC(=N)N)cc2)cc1	µM	60
C/C(=N\NC(=N)N)c1ccc(N(C)C(=O)N(C)c2ccc(/C(C)=N/NC(=N)N)cc2)cc1	µM	310
Br.Br.C/C(=N\NC(=N)N)c1ccc(NC(=O)N(C)c2ccc(/C(C)=N/NC(=N)N)cc2)cc1	µM	80
Br.Br.C/C(=N/NC(=N)N)c1ccc(CNC(=O)N(Cc2ccc(/C(C)=N/NC(=N)N)cc2)N=O)cc1	µM	230
C/C(=N\NC(=N)N)c1ccc(NC(=O)Oc2ccc(/C(C)=N/NC(=N)N)cc2)cc1	µM	170

Numbers sourced from ChEMBL document CHEMBL3244012.
